B1: Mineralocorticoid receptor, residues 600 to 675; numbered along this chain, P08235 (parent)
chain: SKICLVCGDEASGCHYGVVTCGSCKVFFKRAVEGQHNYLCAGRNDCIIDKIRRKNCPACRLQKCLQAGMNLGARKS

Variants of: B1
assay-notes: abundance fitness (aPCA) (normalised: wild type 0, dead -1); higher = more abundant; growth selection in yeast, the domain comes from the species named
run-parameters: Homo sapiens
Recorded abundance fitness, one value per entry.
Lab note: jot the number down without any unit.

Some solved entries appear below for comparison.
• S23Q = -0.013
• G8T = -0.079
• G42S = 0.023

So what does the record say about abundance fitness for C21M ?
-0.969

Also, E10L please.
-0.028

Also, S76W please.
0.122
